// data source = patent US20240270821A1

Could you please report measured EC50 for the items listed next?
- target: hGcgR (Homo sapiens, UniProt P47871)
- Sequence (P47871 26-477): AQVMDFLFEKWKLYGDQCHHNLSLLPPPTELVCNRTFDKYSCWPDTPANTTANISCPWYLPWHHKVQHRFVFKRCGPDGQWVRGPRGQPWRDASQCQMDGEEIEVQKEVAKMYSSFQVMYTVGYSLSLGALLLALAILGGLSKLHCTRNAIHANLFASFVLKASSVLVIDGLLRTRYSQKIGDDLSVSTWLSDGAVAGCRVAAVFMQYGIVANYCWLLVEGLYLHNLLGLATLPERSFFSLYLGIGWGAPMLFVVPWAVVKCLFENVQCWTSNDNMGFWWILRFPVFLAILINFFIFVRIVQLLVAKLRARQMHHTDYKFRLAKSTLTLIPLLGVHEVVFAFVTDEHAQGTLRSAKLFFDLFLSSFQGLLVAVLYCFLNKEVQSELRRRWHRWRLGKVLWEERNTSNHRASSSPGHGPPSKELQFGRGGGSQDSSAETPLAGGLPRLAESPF
- assay: Functional cAMP activation in the presence of 0.1% casein (no HSA);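 further: intracellular cAMP rise after 30 min at 37 °C, read by HTRF against a cAMP standard curve, scaled from buffer only (0%) to maximal control ligand response (100%)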
- Assay type: cell-based
- cond: in the presence of 0.1% casein (no HSA); geometric mean; read-out: Relative cAMP EC50, hGcgR
Starred links: 1 amine or outer side, 2 acyl side, 3 side chain; linkers in the order of their positions; H or OH if unused. Non-standard residues stand in square brackets, D forms with d. Groups on a side chain read outwards from the residue. No end group written: not given here. *: point of attachment. C20 diacid = O=C(O)CCCCCCCCCCCCCCCCCCC(=O)*; C18 diacid = O=C(O)CCCCCCCCCCCCCCCCC(=O)*; αMePhe(2-F) = C[C@](N)(Cc1ccccc1F)C(=O)O; γGlu = O=C(O)[C@H](CCC(=O)[*:2])N[*:1]; αMe4Pal = C[C@](N)(Cc1ccncc1)C(=O)O; αMeY = C[C@](N)(Cc1ccc(O)cc1)C(=O)O; αMeF = C[C@](N)(Cc1ccccc1)C(=O)O; 4Pal = N[C@@H](Cc1ccncc1)C(=O)O; αMeL = CC(C)C[C@](C)(N)C(=O)O; αMeS = C[C@](N)(CO)C(=O)O; Orn = NCCC[C@H](N)C(=O)O; Dab = NCC[C@H](N)C(=O)O; AEEA = NCCOCCOCC(=O)O; Aib = CC(C)(N)C(=O)O

input: Which EC50 value belongs to H-Y[Aib]QGTFTSD[4Pal]SQ[αMeL]LDKK([γGlu-γGlu-C18 diacid])AQ[αMe4Pal]AFIEYLIE[Aib]GPSSGAPPPSGTE-NH2 [Example 1126] ?
output: 3.92 nM

input: Dear colleague, I am looking for the recorded EC50 of the following substance: H-H[Aib]QGT[αMePhe(2-F)]TSDYSILLDKK([AEEA-γGlu-C20 diacid])AA[Aib]AFIEYLIEAGPSSGEPPPSEG-NH2 [Example 298]
output: 1.04 nM

input: What value of EC50 has been recorded for this entry: Y[Aib]QGTFTSD[4Pal]SQ[αMeL]LD[Orn]K([γGlu-γGlu-C18 diacid])AQ[αMe4Pal]QFIE[αMeY]LIEGGPSSGEPPPSGSEE-NH2 [Example 1026]
output: 6.32 nM

input: Look at this substance and give its reported EC50. Y[Aib]QGTFTSDFS[Dab][αMeL]LDKK([AEEA-γGlu-C18 diacid])AQ[Aib]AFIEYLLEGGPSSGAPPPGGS-NH2 [Example 67]
output: 3.7 nM

input: Could you share which EC50 value was measured for H-Y[Aib]QGTFTSD[4Pal]S[Orn][αMeL]LD[Orn]K([Glu-Glu-γGlu-C18 diacid])AQ[αMe4Pal]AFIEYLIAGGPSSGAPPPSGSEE-NH2 [Example 1062] ?
output: 8.77 nM

input: What does the record list as EC50 for H-Y[Aib]QGTFTSDFS[Orn][αMeL]LDKK([AEEA-γGlu-γGlu-C18 diacid])AQ[Aib]AFIEYLLE[Aib]GPSSGAPPPSG[4Pal]-NH2 [Example 279] ?
output: 5.06 nM

input: Bench note: what EC50 did H-Y[Aib]QGTFTSDFSK[αMeL]LDKK([AEEA-γGlu-C20 diacid])AQ[Aib]AFIEYLLAGGPSSGEPPPSEE-NH2 [Example 4] show?
output: 3.2 nM

input: Which EC50 value belongs to H-Y[Aib]QGT[αMeF]TSD[4Pal][αMeS]I[αMeL]LD[Orn]K([γGlu-γGlu-C18 diacid])AQ[αMe4Pal]EFI[dE][αMeY]LIEGGPSSGAPPPSGE-NH2 [Example 1170] ?
output: 2.43 nM

input: May I ask what EC50 has been recorded for Y[Aib]QGTFTSD[4Pal]SQ[αMeL]LD[Orn]K([AEEA-γGlu-γGlu-C18 diacid])AQ[αMe4Pal]AFIEYLIE[dA]GPSSGAPPPSGS-NH2 [Example 1016] ?
output: 5.57 nM

input: Which EC50 reading was recorded for the substance H-Y[Aib]QGTFTSD[4Pal]SQ[αMeL]LDKK([γGlu-γGlu-C18 diacid])AQ[αMe4Pal]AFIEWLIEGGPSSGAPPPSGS-NH2 [Example 872] ?
output: 4.18 nM

input: Item H-Y[Aib]QGTFTSD[4Pal]SR[αMeL]LDKK([AEEA-γGlu-C18 diacid])AQ[Aib]AFIEYLLE[Aib]GPSSGAPPPSGE-NH2 [Example 114] has what recorded EC50?
output: 5.63 nM

input: Which measured EC50 value corresponds to H-Y[Aib]QGTFTSD[4Pal]S[Orn][αMeL]LDKK([AEEA-γGlu-C18 diacid])AQ[Aib]AFIEWLLEGGPSSGEPPPSGE-NH2 [Example 115] ?
output: 10.6 nM
